System: Pseudomonas aeruginosa
experimental.protocol: Antibacterial activity against Pseudomonas aeruginosa ATCC […] at 5 mg/ml after 24 hr by disk diffusion method
Assay type: functional
condition.context: read-out: DIZ
Entries annotated with measured zone of inhibition at 5000 µg/mL

[
  {
    "compound": "CCCC1(c2ccccc2)OC(c2cc3ccccc3o2)=C(C#N)C1c1ccccc1 (centres undefined)",
    "zone of inhibition at 5000 µg/mL [mm]": 10
  },
  {
    "compound": "CCCC1(c2ccccc2)OC(c2ccccc2)=C(C#N)C1c1ccccc1 (centres undefined)",
    "zone of inhibition at 5000 µg/mL [mm]": 10
  },
  {
    "compound": "CCC1C(C#N)=C(c2ccccc2)OC1(c1ccccc1)c1ccccc1 (centres undefined)",
    "zone of inhibition at 5000 µg/mL [mm]": 12
  },
  {
    "compound": "CCC1C(C#N)=C(c2ccco2)OC1(c1ccccc1)c1ccccc1 (centres undefined)",
    "zone of inhibition at 5000 µg/mL [mm]": 12
  }
]

----------
Entries annotated with measured zone of inhibition at 5000 µg/mL
Test system: Micrococcus luteus
experimental.protocol: Antibacterial activity against Micrococcus luteus NRRLB 4375 at 5 mg/ml after 24 hr by disk diffusion method
Type: functional
condition.context: NRRLB 4375, 24 h, read-out: DIZ

[
  {
    "compound": "CCC1C(C#N)=C(c2ccco2)OC1(c1ccccc1)c1ccccc1 (centres undefined)",
    "measured.target": "Micrococcus luteus",
    "zone of inhibition at 5000 µg/mL / mm": 14
  },
  {
    "compound": "CCC1C(C#N)=C(c2ccccc2)OC1(c1ccccc1)c1ccccc1 (centres undefined)",
    "measured.target": "Micrococcus luteus",
    "zone of inhibition at 5000 µg/mL / mm": 13
  },
  {
    "compound": "CCCC1(c2ccccc2)OC(c2cc3ccccc3o2)=C(C#N)C1c1ccccc1 (centres undefined)",
    "measured.target": "Micrococcus luteus",
    "zone of inhibition at 5000 µg/mL / mm": 13
  },
  {
    "compound": "CCCC1(c2ccccc2)OC(c2ccccc2)=C(C#N)C1c1ccccc1 (centres undefined)",
    "measured.target": "Micrococcus luteus",
    "zone of inhibition at 5000 µg/mL / mm": 13
  }
]
